The origin of these recorded values is the supplement of paper PMC10567573.

Reported protein stability index values are given for each entry in this list.
B1: RHOBTB2 (parent)
chain: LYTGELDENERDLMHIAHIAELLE

variants of: B1; experiment: protein stability index of a GFP-peptide fusion (GPS, HEK-293T) (PSI 1-6); higher = more stable; details: c terminus: a fixed tail appended;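 also: lentivirally expressed fusions sorted by FACS into six bins by GFP to DsRed ratio, PSI derived from sequencing read proportions per bin multiplied by bin number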
endpoint_label: protein stability index

>>> df
    variant_string           endpoint_label  value
 0            I19K  protein stability index    4.3
 1             D7G  protein stability index   2.15
 2            A20H  protein stability index   3.54
 3            R11G  protein stability index   3.32
 4             L1R  protein stability index   2.93
 5             E8T  protein stability index    2.4
 6            I19A  protein stability index   3.38
 7            A17K  protein stability index   2.72
 8            E10C  protein stability index    2.6
 9            E24V  protein stability index   1.97
10            E24T  protein stability index    2.3
11            L23Q  protein stability index   4.41
12             N9Y  protein stability index   1.64
13            A17V  protein stability index   1.66
14             L6S  protein stability index   2.81
15            E10S  protein stability index   1.98
16            L13R  protein stability index   3.06
17            L13E  protein stability index   3.44
18             L1F  protein stability index   3.02
19            I19D  protein stability index   4.85
20             T3P  protein stability index   2.14
21            L23W  protein stability index   2.55
22             D7S  protein stability index   2.48
23             Y2S  protein stability index   3.34
24            A20F  protein stability index   1.97
25             T3W  protein stability index   1.54
26             L1S  protein stability index   2.52
27             E8S  protein stability index   2.29
28             G4R  protein stability index   2.29
29            L22I  protein stability index   2.56
30            L23S  protein stability index   4.25
31            A17S  protein stability index   3.02
32            L23V  protein stability index   2.62
33            A17G  protein stability index   2.77
34            H15S  protein stability index   2.54
35            R11H  protein stability index   2.39
36            R11I  protein stability index   2.57
37             Y2N  protein stability index   3.17
38            H18S  protein stability index   3.03
39            L13C  protein stability index   3.45
40             D7P  protein stability index   2.52
41            L13A  protein stability index   3.08
42            M14N  protein stability index   3.52
43            E21M  protein stability index   2.12
44            I19M  protein stability index   2.52
45            I19H  protein stability index   3.62
46            E24M  protein stability index   2.17
47            D12F  protein stability index   2.78
48             Y2P  protein stability index    3.2
49             E8A  protein stability index   2.08
50            D12N  protein stability index   3.12
51            D12G  protein stability index   2.74
52            I16D  protein stability index   4.12
53            L22W  protein stability index   2.52
54            I16F  protein stability index   2.71
55             N9I  protein stability index   3.37
56            D12P  protein stability index   2.43
57             T3E  protein stability index   2.98
58            D12W  protein stability index   2.49
59             E5H  protein stability index   2.24
60            H18I  protein stability index   2.65
61             T3Y  protein stability index   2.08
62            E21H  protein stability index    1.8
63            D12M  protein stability index   2.95
64            R11E  protein stability index   2.44
65            H18N  protein stability index   3.47
66             L6I  protein stability index   2.64
67            L13Y  protein stability index   2.59
68             L6R  protein stability index   2.79
69             L1K  protein stability index   2.49
70            A20G  protein stability index    3.3
71             Y2V  protein stability index   3.45
72            E21W  protein stability index    2.1
73            L23D  protein stability index   4.28
74             T3R  protein stability index   1.98
75             Y2R  protein stability index   3.21
76            L13W  protein stability index   2.65
77            R11D  protein stability index    2.9
78            H15F  protein stability index   2.46
79            D12S  protein stability index   2.56
80            E21G  protein stability index   1.92
81            R11C  protein stability index   2.66
82             L1I  protein stability index      2
83            L22P  protein stability index   4.75
84            R11F  protein stability index   1.83
85            E24N  protein stability index   2.42
86             E8D  protein stability index   3.23
87            L22C  protein stability index   2.79
88            I19V  protein stability index    3.1
89             E5T  protein stability index   2.75
90             Y2K  protein stability index   2.74
